So I've got a bunch of compounds here, and I need their Emax values.
- Tested on: SARS-CoV-2
- assay-summary: microbe, parasite or virus in culture
- Type: cell-based
- test-settings: Severe acute respiratory syndrome coronavirus 2, HeLa-ACE2, 24 h, curve-fit effect at infinite concentration, average; read-out: HeLa-ACE2 CoV-2 Sinf Average
Please answer using a numeric value trailed by its unit.

State its Emax for this compound: C=C(C)[C@]12C[C@@H](C)[C@@]34O[C@](Cc5ccccc5)(O[C@@H]1[C@@H]3C=C(COC(=O)Cc1ccc(O)c(OC)c1)C[C@]1(O)C(=O)C(C)=C[C@@H]41)O2 [Resiniferatoxin]
75%

Quick one: give measured Emax for COC(=O)[C@]12CCC(C)(C)C[C@H]1[C@H]1C(=O)C=C3[C@@]4(C)C=C(C#N)C(=O)C(C)(C)[C@@H]4CC[C@@]3(C)[C@]1(C)CC2 [Bardoxolone methyl]
100%

Find the measured Emax of C[C@]12O[C@H](C[C@]1(O)CO)n1c3ccccc3c3c4c(c5c6ccccc6n2c5c31)CNC4=O [Lestaurtinib] and report it.
99%

Tell me its Emax given C[C@@H]1C[C@@H]([C@H](O)CC2CC(=O)NC(=O)C2)C(=O)[C@@H](C)C1 [Cycloheximide] as the entry.
101%

The measurements presented in this section are drawn from paper PMC8175350.
